Readout Label: melting point

Worked set:
| Structure String | Readout Label | Recorded Measurement |
| --- | --- | --- |
| COc1cc(-c2c[nH]c(C3CCC(F)(F)CC3)n2)ccc1OCc1ccc(C(F)(F)F)cn1 | melting point | > 250 °C |
| COc1cc(OCc2ncccc2C#N)ccc1-c1[nH]c(C2CCC(F)(F)CC2)nc1Br | melting point | 160 to 161 °C |
| COc1cc(OCc2ccc(C(F)(F)F)cn2)ccc1-c1c[nH]c(-c2cccnc2)n1 | melting point | 240 to 242 °C |

melting point for COc1cc(OCc2noc(C3CC3)n2)ccc1-c1cnc(-c2ccc(F)nc2)[nH]1 ? 153 to 158 °C

melting point for COc1cc(OCc2ncc(Cl)cc2C(F)(F)F)ccc1-c1[nH]c(-c2ccc(F)nc2)nc1Br ? 167 to 168 °C

* * *

Experiment: Solubility in gastric juice or intestinal juice model fluid (precipitation method using DMSO)
Type: physicochemical
Settings: pH 1.2, simulated gastric fluid, kinetic from dmso stock, 1st fluid for Disintegration Test of Japanese Pharmacopoeia (pH: 1.2), room temperature, read-out: Solubility (μg/mL) 1st fluid
Readout Label: solubility at 24 h (µg/mL)
Supply the numeric figure in µg/mL, leaving out any unit text.

Worked set:
| Compound | solubility at 24 h / µg/mL |
| --- | --- |
| COc1cc(OCc2ncc(C(F)(F)F)cc2F)ccc1-c1cnc(-c2ccc(Cl)nc2)[nH]1 [Example 102] | 92.5 |
| COc1cc(-c2cnc(C3CCC(F)(F)C3)[nH]2)ccc1OCc1ccc(C(F)(F)F)cn1 (stereo not drawn) [Example 10] | 89.5 |
| COc1cc(-c2cnc(C3CCC(F)(F)C3)[nH]2)ccc1OCc1ncc(C(F)(F)F)cc1F (stereo not drawn) [Example 341] | 91.7 |

solubility at 24 h for COc1cc(OCc2ccc(C(F)(F)F)cn2)ccc1-c1cnc(C2CC(F)(F)C2)[nH]1 [Example 9] ? 87.7

* * *

Assay: Solubility in gastric juice or intestinal juice model fluid (precipitation method using DMSO)
Type: physicochemical
Details: pH 1.2, simulated gastric fluid, kinetic from dmso stock, 1st fluid for Disintegration Test of Japanese Pharmacopoeia (pH: 1.2), room temperature, read-out: Solubility (μg/mL) 1st fluid
Listing of recorded solubility at 24 h by entry.

Worked set:
| Structure String | solubility at 24 h |
| --- | --- |
| Fc1ccc(-c2nc(Cl)c(-c3ccc(OCc4ncc(C(F)(F)F)cc4F)cc3)[nH]2)cn1 | < 0.3 µg/mL |
| COc1cc(-c2c[nH]c(C3CCCCCC3)n2)ccc1OCc1ccc(C(F)(F)F)cn1 | > 116 µg/mL |
| COc1cc(-c2cnc(C3CC(F)(F)C3)[nH]2)ccc1OCc1ccc(C(F)(F)F)nc1 | > 88 µg/mL |
| COc1cc(-c2c[nH]c(C3CC3)n2)ccc1OCc1ccc(C(F)(F)F)cn1 | > 78 µg/mL |
| COc1cc(-c2c[nH]c(C3CCC3)n2)ccc1OCc1ccc(C(F)(F)F)cn1 | > 108 µg/mL |

solubility at 24 h for COc1cc(OCn2cccn2)ccc1-c1c[nH]c(-c2ccc(F)nc2)n1 ? > 73 µg/mL

* * *

Experiment: Solubility in gastric juice or intestinal juice model fluid (precipitation method using DMSO)
Type: physicochemical
Details: pH 1.2, simulated gastric fluid, kinetic from dmso stock, 1st fluid for Disintegration Test of Japanese Pharmacopoeia (pH: 1.2), room temperature, read-out: Solubility (μg/mL) 1st fluid
Readout Label: solubility at 24 h (µg/mL)
Supply the numeric figure in µg/mL, leaving out any unit text.

| Structure String | solubility at 24 h (µg/mL) |
| --- | --- |
| COc1cc(OCc2ncc(C(F)(F)F)cc2F)ccc1-c1[nH]c(C2CCC(F)(F)CC2)nc1Cl | 89.3 |

solubility at 24 h for COc1cc(OCc2ncc(F)cc2F)ccc1-c1[nH]c(-c2ccc(Cl)nc2)nc1Cl ? 8.4

solubility at 24 h for COc1cc(OCc2ncc(Cl)cc2F)ccc1-c1cnc(-c2ccc(F)nc2)[nH]1 ? 10.1

* * *

Listing of recorded melting point by entry.

Worked set:
| Structure String | Recorded Measurement |
| --- | --- |
| COc1cc(OCc2ncc(Br)cc2F)ccc1-c1[nH]c(-c2ccc(F)nc2)nc1Br | 179 to 181 °C |
| COc1cc(OCc2ccc(C(F)(F)F)cn2)ccc1-c1c[nH]c(-c2ccc(C)nc2)n1 | 203 to 205 °C |
| COc1cc(OCc2ccc(Cl)cc2F)ccc1-c1[nH]c(-c2ccc(F)nc2)nc1Br | 165 to 167 °C |
| COc1cc(-c2nc(-c3ccc(Cl)nc3)[nH]c2C)ccc1OCc1ccc(C(F)(F)F)nc1 | 209 to 211 °C |
| COc1cc(OCc2ncc(C(F)(F)F)cc2F)ccc1-c1[nH]c(C2CC(F)(F)C2)nc1Br | 192 to 195 °C |
| COc1cc(OCc2ccc(C(F)(F)F)cn2)ccc1-c1c[nH]c(-c2ccccn2)n1 | 214 to 216 °C |

Below: the item to evaluate.
melting point for COc1cc(-c2c[nH]c(C3CCCCC3)n2)cc(OC)c1OCc1ccc(C(F)(F)F)cn1 ? 183 to 186 °C

* * *

Assay: Solubility in gastric juice or intestinal juice model fluid (precipitation method using DMSO)
Format: physicochemical
Conditions: pH 1.2, simulated gastric fluid, kinetic from dmso stock, 1st fluid for Disintegration Test of Japanese Pharmacopoeia (pH: 1.2), room temperature, read-out: Solubility (μg/mL) 1st fluid
Experimental: Solubility in Gastric Juice or Intestinal Juice Model Fluid Measurement was performed by a precipitation method using DMSO. […] Subsequently, insoluble substances in each mixture were removed by filtration, and the UV absorption of each filtrate was measured. […]
Readout Label: solubility at 24 h

Worked set:
| Structure String | solubility at 24 h |
| --- | --- |
| COc1cc(OCc2ncccc2C(F)(F)F)ccc1-c1[nH]c(C2CCC(F)(F)CC2)nc1Cl | > 100 µg/mL |
| COc1cc(-c2cnc(-c3ccc(F)nc3)[nH]2)ccc1O | > 57 µg/mL |
| COc1cc(-c2nc(-c3ccc(Cl)nc3)[nH]c2Cl)ccc1OCc1cccc(F)n1 | < 0.3 µg/mL |

solubility at 24 h for CCc1cc(OCc2ncc(C(F)(F)F)cc2F)ccc1-c1[nH]c(-c2ccc(F)nc2)nc1Cl ? < 0.4 µg/mL

solubility at 24 h for COc1cc(-c2[nH]c(C3CCC(F)(F)CC3)nc2Br)ccc1OCc1ccc(C(F)(F)F)cn1 ? > 109 µg/mL

solubility at 24 h for COc1cc(OCc2ccc(C(F)(F)F)nc2)ccc1-c1c(C)nc(-c2ccc(F)nc2)n1C ? > 94 µg/mL

* * *

Assay: Solubility in gastric juice or intestinal juice model fluid (precipitation method using DMSO)
Assay type: physicochemical
Settings: pH 6.8, kinetic from dmso stock, 2nd fluid for Disintegration Test of Japanese Pharmacopoeia (pH: 6.8), room temperature, read-out: Solubility (μg/mL) 2nd fluid
Listing of recorded solubility at 24 h by entry.
Supply the numeric figure in µg/mL, leaving out any unit text.

Worked set:
| Compound | Recorded Measurement |
| --- | --- |
| COc1cc(OCc2ccc(C(F)(F)F)cn2)ccc1-c1c[nH]c(-c2ccc(Cl)cn2)n1 [Example 42] | 2.3 |
| COc1cc(OCc2ncc(C(F)(F)F)cc2F)ccc1-c1[nH]c(C(C)C)nc1Cl [Example 385] | 2.1 |

solubility at 24 h for COc1cc(OCc2ccc(C(F)(F)F)cn2)ccc1-c1nc(-c2ccc(F)nc2)[nH]c1Cl [Example 233] ? 1.1

* * *

Assay: Solubility in gastric juice or intestinal juice model fluid (precipitation method using DMSO)
Assay type: physicochemical
Conditions: pH 6.8, kinetic from dmso stock, 2nd fluid for Disintegration Test of Japanese Pharmacopoeia (pH: 6.8), room temperature, read-out: Solubility (μg/mL) 2nd fluid
Listing of recorded solubility at 24 h by entry.

Worked set:
| Structure String | solubility at 24 h |
| --- | --- |
| CCSc1ccc(-c2ncc(-c3ccc(OCc4ncc(C(F)(F)F)cc4F)cc3OC)[nH]2)cn1 | < 0.3 µg/mL |
| Oc1cc(OCc2ncc(C(F)(F)F)cc2F)ccc1-c1[nH]c(-c2ccc(F)nc2)nc1Cl | < 0.3 µg/mL |

solubility at 24 h for COc1cc(-c2nc(-c3ccc(Cl)nc3)[nH]c2Cl)ccc1OCc1cccc(F)n1 ? < 7.9 µg/mL

solubility at 24 h for COc1cc(OCc2ncc(C(F)(F)F)cc2F)ccc1-c1cnc(-c2ccc(F)nc2)[nH]1 ? < 0.3 µg/mL

* * *

Readout Label: melting point

| Molecule | Recorded Measurement |
| --- | --- |
| COc1cc(OCc2ccc(C(F)(F)F)nc2)ccc1-c1nc(-c2ccc(Cl)nc2)[nH]c1Cl [Example 229] | 205 to 208 °C |
| COc1cc(OCc2ncc(C(F)(F)F)cc2Br)ccc1-c1[nH]c(-c2ccc(F)nc2)nc1Br [Example 254] | 148 to 170 °C |
| COc1cc(OCc2ncc(C(F)(F)F)cc2F)ccc1-c1cnc(C(C)C)[nH]1 [Example 381] | 84 to 89 °C |
| COc1cc(-c2[nH]c(C3CCC3)nc2Cl)ccc1OCc1ncc(C(F)(F)F)cc1F [Example 374] | 159 to 162 °C |
| COc1cc(OCc2cnc(C)cn2)ccc1-c1nc(-c2ccc(F)nc2)[nH]c1Cl [Example 216] | 208 to 210 °C (dec.) |
| COc1cc(OCc2ccc(Br)cc2F)ccc1-c1c[nH]c(-c2ccc(C(F)(F)F)nc2)n1 [Example 99] | 183 to 185 °C |

Below: the item to evaluate.
melting point for COc1cc(-c2[nH]c(C3CCC(F)(F)CC3)nc2Cl)ccc1OCc1ccc(C(F)(F)F)nc1 [Example 203] ? 164 to 167 °C
